Provenance of the data: patent US20220396632A1

Target: T1, Human fibrinogen protein (ThermoFisher, RP-43142) (human, UniProt P02671 20-629; P02675 31-491; P02679 27-453, limits assumed, natural sulfotyrosines)
T1 construct: mature; Native dimer with 3 pairs of non-identical chains; also called gamma-fibrinogen; γ fibrinogen protein
T1 sequence (looked up) 1: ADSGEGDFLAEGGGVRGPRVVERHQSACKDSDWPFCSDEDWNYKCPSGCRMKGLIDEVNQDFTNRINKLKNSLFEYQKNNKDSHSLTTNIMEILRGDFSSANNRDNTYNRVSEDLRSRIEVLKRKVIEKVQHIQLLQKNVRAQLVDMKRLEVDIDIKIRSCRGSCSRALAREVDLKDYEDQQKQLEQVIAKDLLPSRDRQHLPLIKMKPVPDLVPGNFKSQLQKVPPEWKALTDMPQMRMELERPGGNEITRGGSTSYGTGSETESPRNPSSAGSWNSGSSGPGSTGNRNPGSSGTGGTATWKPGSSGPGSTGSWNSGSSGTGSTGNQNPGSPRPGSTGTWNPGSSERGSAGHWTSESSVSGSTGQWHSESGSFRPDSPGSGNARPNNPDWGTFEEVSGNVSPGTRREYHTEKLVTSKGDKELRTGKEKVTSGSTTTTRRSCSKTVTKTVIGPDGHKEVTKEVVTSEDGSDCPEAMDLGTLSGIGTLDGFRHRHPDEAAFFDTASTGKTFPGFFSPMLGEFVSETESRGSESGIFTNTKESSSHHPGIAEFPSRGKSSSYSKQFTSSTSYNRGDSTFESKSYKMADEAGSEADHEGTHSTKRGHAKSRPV
T1 sequence (looked up) 2: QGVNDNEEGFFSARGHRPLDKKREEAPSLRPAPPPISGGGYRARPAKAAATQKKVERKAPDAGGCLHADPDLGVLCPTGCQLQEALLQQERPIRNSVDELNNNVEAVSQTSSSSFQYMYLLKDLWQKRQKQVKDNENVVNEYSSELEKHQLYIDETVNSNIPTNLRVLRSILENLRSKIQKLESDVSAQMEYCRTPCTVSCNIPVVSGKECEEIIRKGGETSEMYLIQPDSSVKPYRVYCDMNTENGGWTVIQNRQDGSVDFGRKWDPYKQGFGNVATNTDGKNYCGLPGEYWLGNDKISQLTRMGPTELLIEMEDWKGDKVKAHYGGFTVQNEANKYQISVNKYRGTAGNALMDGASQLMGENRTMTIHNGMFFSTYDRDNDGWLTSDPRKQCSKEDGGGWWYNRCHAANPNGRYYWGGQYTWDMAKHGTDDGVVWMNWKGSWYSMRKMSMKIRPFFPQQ
T1 sequence (looked up) 3: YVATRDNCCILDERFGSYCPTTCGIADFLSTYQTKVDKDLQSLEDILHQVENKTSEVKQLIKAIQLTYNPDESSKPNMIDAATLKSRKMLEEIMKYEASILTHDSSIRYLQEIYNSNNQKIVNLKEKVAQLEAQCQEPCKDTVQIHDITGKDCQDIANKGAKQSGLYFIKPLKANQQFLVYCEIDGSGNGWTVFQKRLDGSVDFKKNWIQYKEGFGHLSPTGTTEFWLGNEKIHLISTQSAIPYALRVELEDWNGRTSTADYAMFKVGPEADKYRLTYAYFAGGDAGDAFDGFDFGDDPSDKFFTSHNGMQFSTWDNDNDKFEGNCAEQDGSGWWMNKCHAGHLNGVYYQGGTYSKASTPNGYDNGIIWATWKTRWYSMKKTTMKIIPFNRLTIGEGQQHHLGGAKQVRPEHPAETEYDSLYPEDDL
Experiment: ELISA, 50 nM mAb
property: binding normalized to PSGL-1
Give a plain numeric answer without units written out.

Example results:
09D11 (antibody, IgG4, V domains shown) VH: QVQLVESGGGFIQPGGSLRLSCAASGLTFSNYAMTWVRQAPGKGLEWVSTISGGGGNTYYTDSVKGRFTISRDNSKNTLYLQMNSLKAEDTAVYRCAKGLAAALFDYWGQGTLVTVSS VL: DIVLTQSPDSLPVTPGEPASISCRSSRSLLHSNGHNFLAWYLQKPGQSPHLLIYLGSNRASGVPDRFSGSGSGTDFTLKISRVEAEDVGIYYCMQALQTPITFGQGTRLDIK    0.07
09C10 (antibody, V domains shown) VH: EVKLLESGGGLIQPGGSLRLSCAASGFTVSNNYVTWVRQAPGKGLELVSSIYSGGGTYYADSVKGRFTISRDNSKNTVYLQMNSLRADDTAVYYCARNVPVTNFGYWGQGTLVTVSS VL: DIVMTQSPLSLPVTLGQPASISCRSSQSLVYRDGNTYLNWFQQRPGQSPRRLIYKVSNRDSGVPDRFSGSGSGTDFTLKISRVEAEDVGVYYCMQLTHWPPGFAQGTKLEIK    0.61
05D01 (antibody, V domains shown) VH: QVTLRESGGALVQPGGSLRLSCAASGFPLRSNAMTWVRQAPGKGLEWVSDIRGNGASTYYADSVKGRFTISRDDSNNILFLQMNSLRAEDTAVYYCVGHGSSSYWGQGTLVTVSS VL: DVVMTQSPLSLPVTLGQPASISCRSSQSLVYRDGNIYLNWFQQRPGQSPRRLIYKVSNRDSGVPDRFSGSGSGTDFTLKISRVEAEDVGVYYCMQLTHWPPGFAQGTKLEIK    0.07

Any idea what binding normalized to PSGL-1 was measured for 08C07 (antibody, IgG4, V domains shown) VH: QMQLVQSGAEVKKPGSSVKVSCKASGGTFSNYGMIWVRQAPRQGLEWMGRIIPFLDKPDYSEKFQDRITFTADKSTSTVYMELRGLRSDDTAVYYCAKWTSTLQGITTGQTWGQGTLVTVSS VL: QPVLTQPPSASGTPGQRVTISCSGSSSNIGGSYMYWYQQFPGTAPKLLIYRNNQRPSGVPDRFSGSKSGTSASLAISGLRSEDEADYYCAAWDVSLSGWVFGGGTKLTVL ?
0.03
